Source: PubChem BioAssay

assay: P. aeruginosa biofilm formation inhibitors, primary screen, PAO1 strain, BacTiter-Glo luminescence, LB-PBS (AID 1144); details: 12 h, higher = more signal
result_type: z-score
Please state the value as a number alone, without comment.

query: Any idea what its z-score is? The molecule is CC(CCN1CCCCc2nc(C)c(C)cc21)=NOC(C)CN1CCCCc2nc(C)c(C)cc21 (centres undefined)
result: 0.483

query: Any idea what its z-score is? The molecule is CCCCc1nc2c(c3c1C[C@H](C)OC3)CN(CCC(C)C)CC2
result: -0.578

query: Any idea what its z-score is? The molecule is COc1ccc(O[C@H]2C=C[C@@H](c3ccccc3)O[C@@H]2COC(=O)CCC(C)=NO[C@@H](C)c2cc(-c3c(C)cc(C)cc3C)no2)cc1
result: -0.587

query: Any idea what its z-score is? The molecule is CO[C@H]([C@@H](C)[C@H](OC)c1ccccc1)[C@H](C)[C@@H](OC)[C@H](C)C(C)=O
result: 0.185

---

biological target: Epidermal growth factor receptor (Homo sapiens) (UniProt P00533); experiment: EGFR binders on small-molecule microarrays, primary screen, biochemical, small-molecule microarray, 635 nm fluorescence (AID 1104); conditions: EGFR binding, higher = more signal;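 further: score merges 667 nm emission intensity with spot signal to noise over triplicate slides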
Sequence (P00533 whole entry, looked up): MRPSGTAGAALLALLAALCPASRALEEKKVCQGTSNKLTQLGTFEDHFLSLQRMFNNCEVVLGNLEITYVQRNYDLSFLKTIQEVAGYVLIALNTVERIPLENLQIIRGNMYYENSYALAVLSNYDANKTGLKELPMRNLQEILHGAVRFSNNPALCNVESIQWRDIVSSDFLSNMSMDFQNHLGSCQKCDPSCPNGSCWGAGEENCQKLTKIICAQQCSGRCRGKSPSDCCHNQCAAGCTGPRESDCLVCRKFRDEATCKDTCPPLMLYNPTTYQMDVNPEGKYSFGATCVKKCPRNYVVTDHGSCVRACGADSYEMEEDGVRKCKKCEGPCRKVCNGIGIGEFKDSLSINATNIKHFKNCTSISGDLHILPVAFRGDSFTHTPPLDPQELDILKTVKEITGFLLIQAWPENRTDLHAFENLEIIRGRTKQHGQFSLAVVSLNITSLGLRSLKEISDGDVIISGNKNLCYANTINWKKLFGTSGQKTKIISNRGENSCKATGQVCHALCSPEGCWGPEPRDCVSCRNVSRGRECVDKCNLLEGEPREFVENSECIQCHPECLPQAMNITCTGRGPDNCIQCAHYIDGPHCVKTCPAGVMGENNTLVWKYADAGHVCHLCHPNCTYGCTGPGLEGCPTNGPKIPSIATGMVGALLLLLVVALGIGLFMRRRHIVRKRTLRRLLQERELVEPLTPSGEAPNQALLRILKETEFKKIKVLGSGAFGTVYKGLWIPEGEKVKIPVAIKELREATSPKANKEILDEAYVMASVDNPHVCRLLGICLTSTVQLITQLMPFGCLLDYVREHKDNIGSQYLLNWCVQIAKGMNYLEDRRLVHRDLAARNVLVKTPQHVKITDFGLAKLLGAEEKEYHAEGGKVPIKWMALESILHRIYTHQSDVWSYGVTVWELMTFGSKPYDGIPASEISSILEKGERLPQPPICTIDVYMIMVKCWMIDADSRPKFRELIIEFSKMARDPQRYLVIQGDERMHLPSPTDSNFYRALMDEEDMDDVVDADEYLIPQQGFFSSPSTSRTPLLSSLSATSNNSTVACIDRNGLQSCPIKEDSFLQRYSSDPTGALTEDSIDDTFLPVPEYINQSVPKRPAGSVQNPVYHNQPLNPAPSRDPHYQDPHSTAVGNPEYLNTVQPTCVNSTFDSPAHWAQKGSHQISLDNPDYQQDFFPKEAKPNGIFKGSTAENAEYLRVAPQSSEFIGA
Assignment: determine reported composite z-score for the given molecules.
Please state the value as a number alone, without comment.

query: Any idea what its composite z-score is? The molecule is CC(C)NC(=O)[C@@]1(c2ccc([N+](=O)[O-])cc2)CC(=O)N(CC23CC4CC(CC(C4)C2)C3)[C@@H]1c1ccc(CO)cc1I
result: 0.353

query: Any idea what its composite z-score is? The molecule is CO[C@H]1COC(=O)[C@@H]2CCCN2C(=O)[C@@H](C)COC(=O)CC=C[C@@H]1C
result: 1.15

query: Any idea what its composite z-score is? The molecule is CC(C)CON=C1C[C@@H](O)[C@@H](O)[C@@H]2[C@@H]3C(=O)N(Cc4ccccc4)C(=O)[C@@H]3CC[C@@H]12
result: 0.571

query: Any idea what its composite z-score is? The molecule is CC(C)(C)N1C(=O)[C@H]2[C@H]3[C@H](O)[C@H](O)CC(=NO[C@@H]4O[C@H](CO)[C@@H](O)[C@H](O)[C@H]4O)[C@@H]3CC[C@H]2C1=O
result: 0.768

query: Any idea what its composite z-score is? The molecule is C=C(/C(=C/C[C@H](OC(C)=O)c1ccc(OCCO)cc1)c1cnc2ccccc2c1)C(C)C
result: 0.333

query: Any idea what its composite z-score is? The molecule is O=C1[C@H]2[C@H]3[C@H](O)[C@H](O)CC(=NOCc4ccccc4)[C@H]3CC[C@H]2C(=O)N1C[C@@H]1CCCO1
result: 0.582

query: Any idea what its composite z-score is? The molecule is CCc1cc2c(nc1CC)CCN(CCC(C)=NOC[C@@H](O)COCc1ccco1)C2
result: 1.78

query: Any idea what its composite z-score is? The molecule is COCCOC(=O)N1C(=O)[C@@]2(c3cc(C#CC4(O)CCCCCC4)ccc31)[C@H](C(=O)N1CCN(c3ncccn3)CC1)[C@H]1C(=O)O[C@H](c3ccccc3)[C@H](c3ccccc3)N1[C@@H]2c1ccc(OCCO)cc1
result: 0.729

query: Any idea what its composite z-score is? The molecule is CC(C)(C)N1C(=O)[C@H]2[C@H]3[C@H](O)[C@H](O)CC(=NOCc4ccccc4)[C@@H]3CC[C@H]2C1=O
result: 0.455

query: Any idea what its composite z-score is? The molecule is COC(=O)c1c(CC[C@@H](CO)NC(=O)N[C@H](Cc2ccccc2)Cn2cc(-c3ccccc3N)nn2)oc(C(C)=O)c1C(=O)OC
result: -0.165

query: Any idea what its composite z-score is? The molecule is O=C(NN=C1C[C@@H](O)[C@@H](O)[C@@H]2[C@@H]3C(=O)N(c4cccc(Oc5ccccc5)c4)C(=O)[C@@H]3CC[C@H]12)OCc1ccccc1
result: 0.116

query: Any idea what its composite z-score is? The molecule is COC(=O)C1=C(C)N(Cc2ccccc2)[C@]23O[C@](C(=O)OC)(C(=O)N2[C@@H]1c1ccccc1)[C@H]1CCOC(=O)[C@H]13
result: 0.482

query: Any idea what its composite z-score is? The molecule is C=CC[C@]1(C(=O)NCc2ccccc2)N=C(c2ccc(OCCCO)cc2)O[C@H]1c1ccccc1
result: -0.29

query: Any idea what its composite z-score is? The molecule is CCOC(=O)NN=C1C[C@@H](O)[C@@H](O)[C@@H]2[C@@H]3C(=O)N(C(C)(C)C)C(=O)[C@@H]3CC[C@@H]12
result: 0.43

query: Any idea what its composite z-score is? The molecule is C[C@@H]1CC[C@H]2C(=O)O[C@H](COc3ccc(C(C)(C)C)cc3)CN2[C@H]1c1ccc(Br)cc1
result: -0.287

query: Any idea what its composite z-score is? The molecule is CC[C@@H](c1ccccc1)n1c(=O)n2n(c1=O)[C@H]1[C@H](O)[C@@H]3O[C@@H]3C(=NOCC=C(C)CCC=C(C)C)[C@H]1CC2
result: 0.446

query: Any idea what its composite z-score is? The molecule is COCCCNC(=O)[C@@]1(CCS(=O)(=O)c2ccccc2)N=C(c2ccc(OCCCO)cc2)O[C@H]1c1ccccc1
result: -0.11

query: Any idea what its composite z-score is? The molecule is O=C1[C@H]2[C@H]3[C@H](O)[C@H](O)CC(=NOC[C@@H](O)COCc4ccco4)[C@H]3CC[C@H]2C(=O)N1c1cccc(Oc2ccccc2)c1
result: -0.249

query: Any idea what its composite z-score is? The molecule is COCC(=C=CC[C@@H](O)c1ccccc1OCCO)CCO
result: -0.423

query: Any idea what its composite z-score is? The molecule is CCOC(=O)NN=C1C[C@@H](O)[C@@H](O)[C@@H]2[C@@H]3C(=O)N(C4CCCCC4)C(=O)[C@@H]3CC[C@@H]12
result: 0.34

query: Any idea what its composite z-score is? The molecule is COCC1=C2[C@@H](CCc3ccccc3)OB(O)C[C@@H]2n2c(=O)n(-c3ccccc3)c(=O)n2C1
result: 0.492

query: Any idea what its composite z-score is? The molecule is COCCOC(=O)N1C(=O)[C@@]2(c3cc(C#CCNC(N)=O)ccc31)[C@H](c1ccc(O)cc1)N1[C@H](c3ccccc3)[C@H](c3ccccc3)OC(=O)[C@H]1[C@@H]2C(=O)N1CCCCCCC1
result: 0.611

query: Any idea what its composite z-score is? The molecule is C[C@@H](c1ccccc1)N1C(=O)[C@H]2[C@H]3[C@H](O)[C@H](O)CC(=NOC[C@@H](O)COCc4ccco4)[C@@H]3CC[C@H]2C1=O
result: -0.0809

query: Any idea what its composite z-score is? The molecule is CC(C)[C@@H](OCc1ccccc1)[C@H](C)C=NO[C@H](C)c1cn([C@H](CO)Cc2ccccc2)nn1
result: 0.173

query: Any idea what its composite z-score is? The molecule is CCCNC(=O)[C@@H]1c2ccccc2C(=O)N(c2ccc(C)cn2)[C@H]1c1ccc(CO)cc1
result: -0.327

query: Any idea what its composite z-score is? The molecule is CC(CCC(=O)OC[C@H]1O[C@H](C#Cc2ccccc2)C=C[C@@H]1Oc1ccc(C)cc1)=NOC[C@@H](O)COCc1ccco1
result: -3.58

query: Any idea what its composite z-score is? The molecule is O=C1[C@H]2[C@H]3[C@H](O)[C@H](O)CC(=NO[C@@H]4O[C@H](CO)[C@@H](O)[C@H](O)[C@H]4O)[C@@H]3CC[C@H]2C(=O)N1Cc1ccc2c(c1)OCO2
result: 0.4

query: Any idea what its composite z-score is? The molecule is COC(=O)CC=C[C@H](C)[C@H](CO)NS(=O)(=O)c1ccc(C)cc1
result: 0.573
